Test system: SK-MEL-28 melanoma
assay.overview: NCI-60 one-dose screen, 48 h
condition.set: 10 µM unless noted
Compounds without any hit were thinned out: in the full panel of roughly 83,000, 20% have a hit. Calls of active or inactive are those of the source. How the source made its calls: active means growth percent below 10; inactive means the rest.
In this exercise, the only acceptable responses are 1 for active, 0 for inactive

INSERT INTO assay_data (molecule, target_or_test_system, assigned_label) VALUES
  ('CCN(CC)c1ccc2cc(C(Nc3ccc(C)cc3)c3nnnn3C(C)(C)C)c(=O)oc2c1 (stereo unspecified)', 'SK-MEL-28 melanoma', 0),
  ('CSc1nc(=S)c2nc(SC)n(-c3ccccc3)c2[nH]1', 'SK-MEL-28 melanoma', 0),
  ('CCN(CC)c1ccc2cc(NC(=O)OCCNC(=O)CCNC(=O)[C@H](CC(C)C)NC(=O)C(C)(C)NC(=O)C(C)(C)NC(=O)[C@H](CC(C)C)NC(=O)CCNC(=O)C(C)(C)NC(=O)[C@H](CC(C)C)NC(=O)CCNC(=O)[C@@](C)(CC)NC(=O)[C@H](C)NC(=O)CCNC(=O)C(C)(C)NC(=O)[C@H](C)NC(=O)[C@@H]3CCCN3C(=O)[C@@](C)(CC)NC(=O)[C@H](Cc3ccccc3)NC(=O)C3CCCN3C(=O)C(C)(C)NC(=O)C3CCCN3C(=O)C(C)(C)NC(C)=O)c(=O)oc2c1 (stereo partly specified)', 'SK-MEL-28 melanoma', 1),
  ('CCOC(=O)c1sc2nc(-c3cc(OC)c(OC)c(OC)c3)nc(N3CCOCC3)c2c1C', 'SK-MEL-28 melanoma', 0),
  ('CC1=CC[C@@H]2C(C)(C)[C@@H](O)CC[C@@]2(C)[C@@H]1COc1ccc2ccc(=O)oc2c1', 'SK-MEL-28 melanoma', 0);

## Task Outcome logged for "CCCc1cc2cc(-n3nc(C)c4c3CC(C)(C)CC4=O)cc(NC3CCSCC3)c2c(=O)[nH]1" in this assay:
## Result 0

---

Test system: SF-539 CNS
assay.overview: NCI-60 one-dose screen, 48 h
condition.set: 10 µM unless noted
This is part of a sample that, as a whole, favours compounds with a hit. Of some 83,000 tested, about 20% had one in any assay. Active and inactive are the calls of the source. How the source made its calls: active means growth percent below 10; inactive means the rest.
In this exercise, the only acceptable responses are 1.0 (active), 0.0 (inactive)

INSERT INTO results (compound, assigned_label) VALUES
  ('CCN=Cc1c(O)c(O)c(C(C)C)c2cc(C)c(-c3c(C)cc4c(C(C)C)c(O)c(O)c(C=NCC)c4c3O)c(O)c12', 0.0);

## Task Outcome logged for CC(C)[N+](C)(C)CC(O)COc1cccc2ccccc12 (stereo not given) in this assay:
## Result 0.0

## Task Outcome logged for "Cc1ccc(C2=C/C(=C/c3ccc(Br)cc3)C(=O)N2CCc2ccc(S(N)(=O)=O)cc2)cc1" in this assay:
## Result 0.0

## Task Outcome logged for "Cc1cc(C)c(O)c(CNCCCNCc2cc(C)cc(C)c2O)c1" in this assay:
## Result 1.0

## Task Outcome logged for COc1ccc(CC(C#N)c2ccc(Cl)cc2)cc1 (stereo not given) in this assay:
## Result 0.0

---

Tested on: SF-295 CNS
assay.overview: NCI-60 one-dose screen, 48 h
condition.set: 10 µM unless noted
This is part of a sample that, as a whole, favours compounds with a hit. Of some 83,000 tested, about 20% had one in any assay. Active and inactive are the calls of the source. Rule for the calls: active = growth percent below 10; inactive = the rest.
In this exercise, the only acceptable responses are 1 (yes) (active), 0 (no) (inactive)

Worked cases, answers included:
INSERT INTO results (molecule, assigned_label) VALUES
  ('CC(C)=CCC[C@](C)(O)[C@H]1CC[C@]2(C)[C@@H]1CC[C@@H]1[C@@]3(C)CC[C@H](OC(=O)CCC(=O)O)C(C)(C)[C@@H]3CC[C@]12C', '1 (yes)'),
  ('c1nc(N2CCOCC2)c2[nH]ccc2n1', '0 (no)'),
  ('COc1ccc(/C=C2\N=C(Nc3ccccc3)N(NC(=O)c3ccccn3)C2=O)cc1', '0 (no)'),
  ('N#Cc1c(Cl)nc(SCC2CO2)nc1-c1ccccc1 (stereo not given)', '0 (no)');

Now let's try a different one.
## Task Outcome logged for "C#CCNC(=O)CC[C@@H](C)[C@H]1CC[C@H]2[C@@H]3CC[C@@H]4CC(=O)CC[C@]4(C)[C@H]3CC[C@]12C" in this assay:
## Result 1 (yes)
